test: in vitro; details: human, NCI H1395 cells
Hi there, I'd appreciate the recorded CC50 at 24 h for every entry that follows.

Input: Quick one: CC50 at 24 h for CC1(C(N)=O)CC(n2ccc(N)nc2=O)O[C@@H]1CO (mixture of isomers) ?
Output: > 500 µM

Input: And the next one, COC(=O)C1(C)C[C@H](n2ccc(=O)[nH]c2=O)O[C@@H]1CO (mixture of isomers) ?
Output: > 500 µM

Input: Next record, please: COC(=O)C1(C)C[C@H](n2cc(C)c(=O)[nH]c2=O)O[C@@H]1CO (mixture of isomers)
Output: > 500 µM

Input: Repeat for the following compound: Cc1cn([C@H]2CC(C)(CO)[C@@H](CO)O2)c(=O)[nH]c1=O (mixture of isomers)
Output: > 500 µM

Input: Next compound: CCOC(=O)[C@@H]1O[C@H](n2ccc(=O)[nH]c2=O)CC1(C)C(=O)OCC (stereo partly drawn)
Output: > 460 µM

Input: Further, for CC1(CO)C[C@@H](n2ccc(=O)[nH]c2=O)O[C@@H]1CO (mixture of isomers) ?
Output: > 500 µM

Data provenance is patent US8361988B2.
